# Tested Target: human recombinant HDAC6 (Homo sapiens)
# Construct: purchased Calbiochem Inc. 382180
# Method: HDAC6 enzyme activity inhibition (HDAC Fluorimetric Drug Discovery Kit)
# Type: biochemical
# Condition Summary: human recombinant HDAC6; IC50 calculated with GraphPad Prism
pIC50: −log10 of the molar value.
Param threshold (7) applies to pIC50; output 1 when value >= threshold, -1 when value < threshold.

# example entries with known answers
CN1CCC(c2cn(Cc3ccc(-c4nnc(C(F)F)o4)cn3)nn2)CC1 :: -1
Fc1cc(-c2nnc(C(F)F)o2)ccc1Cn1cc(-c2cccc(NC3CCOCC3)c2)nn1 :: 1
CN1CC(NC(=O)c2cccc(-c3cn(Cc4ccc(-c5nnc(C(F)F)o5)cn4)nn3)c2)C1 :: 1
CCN1CCc2ccc(-c3cn(Cc4ccc(-c5nnc(C(F)F)o5)cc4F)nn3)cc2C1 :: 1
Cn1c(Cc2ccc(-c3nnc(C(F)F)o3)cc2)nnc1-c1ccccc1 :: -1
CC(C)(C)OC(=O)NC1(C(=O)Nc2cccc(-c3cn(Cc4ccc(-c5nnc(C(F)F)o5)cn4)nn3)c2)CCC1 :: 1
FC(F)c1nnc(-c2ccc(Cn3cc(C4CCN(C5COC5)CC4)nn3)nc2)o1 :: -1
FC(F)c1nnc(-c2ccc(Cn3cc(-c4cccc5[nH]ccc45)nn3)nc2)o1 :: 1
CC(C)(C)OC(=O)N1CCC(c2cn(Cc3ccc(-c4nnc(C(F)F)o4)cc3F)nn2)C1 (centres unmarked) :: -1
CN(C)C(C)(C)C(=O)Nc1cccc(-c2cn(Cc3ccc(-c4nnc(C(F)F)o4)cc3)nn2)c1 :: 1

Query: Does CC1CCN(Cc2c[nH]c3cc(-c4cn(Cc5ccc(-c6nnc(C(F)F)o6)cc5F)nn4)ccc23)CC1 have a reported pIC50 of at least 7?
Reply: 1

Query: Does OC1(c2cn(Cc3ccc(-c4nnc(C(F)F)o4)cn3)nn2)CCOC1 (centres unmarked) have a reported pIC50 of at least 7?
Reply: -1

====

# Tested Target: human recombinant HDAC6 (Homo sapiens, UniProt Q9UBN7)
# Construct: purchased Calbiochem Inc. 382180
# Sequence (Q9UBN7 1-1215): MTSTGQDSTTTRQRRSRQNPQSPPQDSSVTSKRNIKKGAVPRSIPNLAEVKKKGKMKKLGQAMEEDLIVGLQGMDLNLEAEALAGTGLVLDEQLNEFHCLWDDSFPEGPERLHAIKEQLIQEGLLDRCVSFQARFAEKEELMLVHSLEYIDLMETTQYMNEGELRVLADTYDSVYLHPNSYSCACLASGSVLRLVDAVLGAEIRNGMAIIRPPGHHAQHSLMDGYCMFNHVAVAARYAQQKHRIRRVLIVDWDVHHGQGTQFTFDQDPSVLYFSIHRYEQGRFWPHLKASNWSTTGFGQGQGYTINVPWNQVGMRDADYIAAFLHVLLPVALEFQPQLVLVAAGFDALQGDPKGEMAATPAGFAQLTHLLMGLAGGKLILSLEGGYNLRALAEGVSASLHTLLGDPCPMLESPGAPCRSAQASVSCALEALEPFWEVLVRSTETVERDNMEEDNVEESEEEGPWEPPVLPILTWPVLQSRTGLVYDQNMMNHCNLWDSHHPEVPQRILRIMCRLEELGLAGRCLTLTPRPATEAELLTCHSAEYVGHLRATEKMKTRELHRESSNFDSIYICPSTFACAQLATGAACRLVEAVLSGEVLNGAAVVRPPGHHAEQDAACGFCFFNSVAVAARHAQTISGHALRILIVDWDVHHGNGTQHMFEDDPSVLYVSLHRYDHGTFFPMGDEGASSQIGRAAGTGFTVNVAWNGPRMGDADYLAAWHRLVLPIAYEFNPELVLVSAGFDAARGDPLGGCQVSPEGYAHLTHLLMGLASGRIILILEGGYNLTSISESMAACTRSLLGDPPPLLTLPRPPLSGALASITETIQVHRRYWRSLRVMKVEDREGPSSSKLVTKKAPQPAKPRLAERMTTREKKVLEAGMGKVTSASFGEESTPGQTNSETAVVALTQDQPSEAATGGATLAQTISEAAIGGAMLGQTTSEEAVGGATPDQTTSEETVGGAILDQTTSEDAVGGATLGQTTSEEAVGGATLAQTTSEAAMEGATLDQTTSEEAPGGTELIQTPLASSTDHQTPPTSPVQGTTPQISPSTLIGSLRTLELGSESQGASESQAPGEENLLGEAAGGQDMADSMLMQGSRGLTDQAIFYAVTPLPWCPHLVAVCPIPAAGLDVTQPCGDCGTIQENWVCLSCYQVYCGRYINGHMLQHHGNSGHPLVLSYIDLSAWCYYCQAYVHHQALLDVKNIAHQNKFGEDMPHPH
# Method: HDAC6 enzyme activity inhibition (HDAC Fluorimetric Drug Discovery Kit)
# Type: biochemical
# Condition Summary: human recombinant HDAC6; IC50 calculated with GraphPad Prism
pIC50: −log10 of the molar value.
Param threshold (7) applies to pIC50; output MET when value >= threshold, NOT MET when value < threshold.

# example entries with known answers
CN1CCN(C(=O)c2cccc(-c3cn(Cc4ccc(-c5nnc(C(F)F)o5)cn4)nn3)c2)CC1 :: MET
FC(F)(F)c1nnc(-c2ccc(Cn3nnc(-c4ccccc4)n3)nc2)o1 :: NOT MET
CN1CCN(Cc2cccc(-c3cn(Cc4ccc(-c5nnc(C(F)F)o5)cn4)nn3)c2)CC1 :: MET
CCOC(=O)N(C)c1cccc(-c2cn(Cc3ccc(-c4nnc(C(F)F)o4)cn3)nn2)c1 :: MET
Fc1cc(-c2nnc(C(F)F)o2)ccc1Cn1cc(-c2cccc(N3CCN(C4COC4)CC3)c2)nn1 :: MET

Then this compound:
Query: Does FC(F)c1nnc(-c2ccc(Cn3cc(-c4ccc5c(c4)CN(C4COC4)CC5)nn3)nc2)o1 have a reported pIC50 of at least 7?
Reply: MET

====

# Tested Target: human recombinant HDAC6 (Homo sapiens, UniProt Q9UBN7)
# Construct: purchased Calbiochem Inc. 382180
# Method: HDAC6 enzyme activity inhibition (HDAC Fluorimetric Drug Discovery Kit)
# Assay type: biochemical
# Condition Summary: HDAC1 IC50 / HDAC6 IC50
Listing of entries alongside the reported HDAC6 selectivity (fold).
The answer is to be given in fold; state only the numeric part.

CC(C)(C)C(=O)Nc1cccc(-c2cn(Cc3ccc(-c4nnc(C(F)F)o4)cc3)nn2)c1 :: 1396

Value of measured HDAC6 selectivity (fold) for the entry FC(F)c1nnc(-c2ccc(Cn3cc(-c4ccc5c(c4)CN(C4CCC4)CC5)nn3)nc2)o1 : 1602

Value of measured HDAC6 selectivity (fold) for the entry OCCCc1cn(Cc2ccc(-c3nnc(C(F)F)o3)cn2)nn1 : 117

====

# Tested Target: human recombinant HDAC6 (Homo sapiens, UniProt Q9UBN7)
# Construct: purchased Calbiochem Inc. 382180
# Method: HDAC6 enzyme activity inhibition (HDAC Fluorimetric Drug Discovery Kit)
# Assay type: biochemical
# Condition Summary: HDAC1 IC50 / HDAC6 IC50
Listing of entries alongside the reported HDAC6 selectivity (fold).
The answer is to be given in fold; state only the numeric part.

Example entries begin here.
FC(F)c1nnc(-c2ccc(Cn3cc(C4CN(C5COC5)C4)nn3)nc2)o1 :: 95
FC(F)c1nnc(-c2ccc(Cn3cc(-c4cccc(NC5CCCCC5)c4)nn3)cc2)o1 :: 170

Value of measured HDAC6 selectivity (fold) for the entry FC(F)c1nnc(-c2ccc(Cn3cc(-c4ccc(Cl)nc4)nn3)nc2)o1 : 988

Value of measured HDAC6 selectivity (fold) for the entry FC(F)c1nnc(-c2ccc(Cn3cc(-c4ccc5occc5c4)nn3)nc2)o1 : 822

Value of measured HDAC6 selectivity (fold) for the entry CN(C)Cc1c(-c2ccccc2)nnn1Cc1ccc(-c2nnc(C(F)F)o2)cn1 : 571

Value of measured HDAC6 selectivity (fold) for the entry Cc1nc(-c2ccccc2)cn1Cc1ccc(-c2nnc(C(F)F)o2)cn1 : 258

Value of measured HDAC6 selectivity (fold) for the entry CN1CCN(c2cccc(-c3cn(Cc4ccc(-c5nnc(C(F)F)o5)cn4)nn3)c2)CC1 : 1953

====

# Tested Target: human recombinant HDAC6 (Homo sapiens, UniProt Q9UBN7)
# Construct: purchased Calbiochem Inc. 382180
# Sequence (Q9UBN7 1-1215): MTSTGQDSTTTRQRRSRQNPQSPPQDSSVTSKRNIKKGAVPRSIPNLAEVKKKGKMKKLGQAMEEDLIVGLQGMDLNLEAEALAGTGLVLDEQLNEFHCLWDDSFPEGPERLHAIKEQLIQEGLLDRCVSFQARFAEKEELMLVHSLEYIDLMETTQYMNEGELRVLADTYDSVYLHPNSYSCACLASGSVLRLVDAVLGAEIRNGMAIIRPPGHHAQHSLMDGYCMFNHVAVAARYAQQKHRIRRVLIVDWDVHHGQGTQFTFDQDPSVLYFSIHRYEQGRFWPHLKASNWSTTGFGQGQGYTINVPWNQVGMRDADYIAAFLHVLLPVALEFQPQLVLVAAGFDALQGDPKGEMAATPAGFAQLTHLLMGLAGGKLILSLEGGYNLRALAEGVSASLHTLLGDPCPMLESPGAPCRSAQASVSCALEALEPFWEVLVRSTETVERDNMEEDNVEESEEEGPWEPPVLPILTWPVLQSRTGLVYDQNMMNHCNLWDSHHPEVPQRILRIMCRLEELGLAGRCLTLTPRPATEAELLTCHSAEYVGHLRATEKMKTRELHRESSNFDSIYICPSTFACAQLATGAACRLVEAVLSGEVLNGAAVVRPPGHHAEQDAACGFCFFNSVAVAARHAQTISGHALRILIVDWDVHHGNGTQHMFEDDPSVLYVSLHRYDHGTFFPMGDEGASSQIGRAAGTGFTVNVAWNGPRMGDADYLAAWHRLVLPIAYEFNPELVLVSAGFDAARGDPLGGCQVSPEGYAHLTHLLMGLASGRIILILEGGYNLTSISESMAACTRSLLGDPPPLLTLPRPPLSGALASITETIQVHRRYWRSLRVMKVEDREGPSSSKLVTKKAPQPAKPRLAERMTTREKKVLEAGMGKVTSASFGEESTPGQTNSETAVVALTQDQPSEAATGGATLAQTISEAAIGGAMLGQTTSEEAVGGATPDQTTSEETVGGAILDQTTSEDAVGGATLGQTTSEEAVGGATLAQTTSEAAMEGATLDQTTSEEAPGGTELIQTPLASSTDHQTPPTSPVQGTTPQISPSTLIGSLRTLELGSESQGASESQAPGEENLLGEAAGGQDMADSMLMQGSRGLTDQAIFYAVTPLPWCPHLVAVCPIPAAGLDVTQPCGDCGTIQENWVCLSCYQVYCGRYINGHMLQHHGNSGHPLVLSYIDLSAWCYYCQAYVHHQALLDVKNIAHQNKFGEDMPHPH
# Method: HDAC6 enzyme activity inhibition (HDAC Fluorimetric Drug Discovery Kit)
# Format: biochemical
# Condition Summary: human recombinant HDAC6; IC50 calculated with GraphPad Prism
Readout Kind: pIC50
Please treat pIC50 as minus the base-10 logarithm of the molar concentration.

Fc1cc(-c2nnc(C(F)F)o2)ccc1Cn1cc(-c2ccc(CN3CCOCC3)cc2)nn1 :: 7.35

Short answer on human recombinant HDAC6 (Homo sapiens, UniProt Q9UBN7) for FC(F)c1cccc(-c2cn(Cc3ccc(-c4nnc(C(F)F)o4)cc3)nn2)c1 , pIC50: 7.10

Short answer on human recombinant HDAC6 (Homo sapiens, UniProt Q9UBN7) for Fc1ccc(N2CCN(C3CCC3)CC2)cc1-c1cn(Cc2ccc(-c3nnc(C(F)F)o3)cc2)nn1 , pIC50: 7.10

Short answer on human recombinant HDAC6 (Homo sapiens, UniProt Q9UBN7) for FC(F)c1nnc(-c2ccc(Cn3cc(-c4cnc5[nH]ccc5c4)nn3)nc2)o1 , pIC50: 8.08

Short answer on human recombinant HDAC6 (Homo sapiens, UniProt Q9UBN7) for CC(C)N1CC(c2cn(Cc3ccc(-c4nnc(C(F)F)o4)cn3)nn2)C1 , pIC50: 6.19

Short answer on human recombinant HDAC6 (Homo sapiens, UniProt Q9UBN7) for CN1CCC(Nc2ccc(F)c(-c3cn(Cc4ccc(-c5nnc(C(F)F)o5)cc4F)nn3)c2)CC1 , pIC50: 7.53
